# credit: patent US10221163B2

- study.system: IMP-1 (Serratia marcescens)
- Sequence (P52699 whole entry, looked up, species assumed): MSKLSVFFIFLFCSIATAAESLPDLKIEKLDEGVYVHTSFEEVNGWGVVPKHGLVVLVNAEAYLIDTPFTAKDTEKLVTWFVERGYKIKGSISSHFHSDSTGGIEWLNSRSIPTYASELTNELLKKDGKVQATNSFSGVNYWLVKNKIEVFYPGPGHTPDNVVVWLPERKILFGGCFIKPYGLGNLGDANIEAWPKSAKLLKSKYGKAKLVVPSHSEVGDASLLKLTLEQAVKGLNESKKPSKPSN
- experiment.summary: biochemical
- Type: biochemical
- condition.label: fluorescence assay, CCF2-FA substrate, 2 pM enzyme, 2 hours at 25° C.; read-out: IMP-1 IC50
test.readout: IC50 (nM)

[[record]]
compound = "NC[C@@H](N)CNS(=O)(=O)c1ccc(-c2ccc(N)nc2)c(-c2nn[nH]n2)c1S(N)(=O)=O"
test_readout = "IC50"
value = 1.34

[[record]]
compound = "Nc1nc2c(-c3ccc(S(=O)(=O)NCC4(O)CNC4)c(S(N)(=O)=O)c3-c3nn[nH]n3)cccc2s1"
test_readout = "IC50"
value = 0.244

[[record]]
compound = "CC1(NS(=O)(=O)c2ccc(-c3ccc(N)nc3)c(-c3nn[nH]n3)c2S(N)(=O)=O)CNC1.Cl.Cl"
test_readout = "IC50"
value = 0.645

[[record]]
compound = "Nc1ccc(-c2ccc(S(=O)(=O)NC[C@]3(N)CCNC3)c(S(N)(=O)=O)c2-c2nn[nH]n2)cn1"
test_readout = "IC50"
value = 0.304

[[record]]
compound = "Nc1nc2c(-c3ccc(S(=O)(=O)NC4(CO)CCNC4)c(S(N)(=O)=O)c3-c3nnn[nH]3)cccc2s1 (stereo not shown) [Example 84]"
test_readout = "IC50"
value = 0.403

[[record]]
compound = "Nc1nc2c(-c3ccc(S(=O)(=O)N[C@H]4CN[C@H](CO)C4)c(S(N)(=O)=O)c3-c3nnn[nH]3)cccc2s1"
test_readout = "IC50"
value = 0.234

[[record]]
compound = "NS(=O)(=O)c1c(S(=O)(=O)N2CCNCC2)ccc(-c2cccc3cn[nH]c23)c1-c1nnn[nH]1"
test_readout = "IC50"
value = 1.39

[[record]]
compound = "NCC(=O)NC1C=C(c2ccc(S(=O)(=O)N[C@@H]3CCNC3)c(S(N)(=O)=O)c2-c2nn[nH]n2)CCC1 (stereo partly shown)"
test_readout = "IC50"
value = 4.03

[[record]]
compound = "C[C@H](CN)NS(=O)(=O)c1ccc(-c2cccn3ccnc23)c(-c2nn[nH]n2)c1S(N)(=O)=O"
test_readout = "IC50"
value = 0.0539

[[record]]
compound = "C[C@H](CCN)NS(=O)(=O)c1ccc(-c2ccc(N)nc2)c(-c2nn[nH]n2)c1S(N)(=O)=O"
test_readout = "IC50"
value = 0.0763

[[record]]
compound = "N[C@@H]1C=C(c2ccc(S(=O)(=O)N[C@@H]3CCNC3)c(S(N)(=O)=O)c2-c2nn[nH]n2)CCC1"
test_readout = "IC50"
value = 46.7

[[record]]
compound = "N[C@H](CO)c1nc2c(-c3ccc(S(=O)(=O)N[C@H]4CNC[C@H]4N)c(S(N)(=O)=O)c3-c3nn[nH]n3)cccc2[nH]1"
test_readout = "IC50"
value = 3.39

[[record]]
compound = "NCCn1nc2cccc(-c3ccc(S(=O)(=O)N[C@@H]4CCNC4)c(S(N)(=O)=O)c3-c3nn[nH]n3)c2n1"
test_readout = "IC50"
value = 3.03

[[record]]
compound = "NS(=O)(=O)c1c(S(=O)(=O)N[C@H]2CCNC2)ccc(-c2cccc3[nH]cnc23)c1-c1nn[nH]n1"
test_readout = "IC50"
value = 0.395

[[record]]
compound = "NCCCCNS(=O)(=O)c1ccc(-c2cccc3[nH]c(N)nc23)c(-c2nn[nH]n2)c1S(N)(=O)=O"
test_readout = "IC50"
value = 0.691

[[record]]
compound = "NC[C@@H](CO)NS(=O)(=O)c1ccc(-c2ccc(N)nc2)c(-c2nn[nH]n2)c1S(N)(=O)=O"
test_readout = "IC50"
value = 0.17

[[record]]
compound = "Nc1ccc(-c2ccc(S(=O)(=O)NC[C@@]3(N)CCNC3)c(S(N)(=O)=O)c2-c2nn[nH]n2)cn1"
test_readout = "IC50"
value = 0.508

[[record]]
compound = "COC(=O)[C@H]1C[C@@H](NS(=O)(=O)c2ccc(-c3cccc4sc(N)nc34)c(-c3nnn[nH]3)c2S(N)(=O)=O)CN1"
test_readout = "IC50"
value = 0.177

[[record]]
compound = "NC[C@@H](O)CNS(=O)(=O)c1ccc(-c2cnc(N)c(F)c2)c(-c2nn[nH]n2)c1S(N)(=O)=O"
test_readout = "IC50"
value = 0.677

[[record]]
compound = "NCC(CN)NS(=O)(=O)c1ccc(-c2ccc(N)nc2)c(-c2nn[nH]n2)c1S(N)(=O)=O"
test_readout = "IC50"
value = 0.354

[[record]]
compound = "NCCNS(=O)(=O)c1ccc(-c2cccc(C(=O)NCC(O)CN)c2)c(-c2nn[nH]n2)c1S(N)(=O)=O (stereo in doubt)"
test_readout = "IC50"
value = 3.97

[[record]]
compound = "NCCNS(=O)(=O)c1ccc(-c2cnc3cc[nH]c3c2)c(-c2nn[nH]n2)c1S(N)(=O)=O"
test_readout = "IC50"
value = 1.61

[[record]]
compound = "CS(=O)(=O)Nc1ccc(-c2ccc(S(=O)(=O)N[C@@H]3CCNC3)c(S(N)(=O)=O)c2-c2nnn[nH]2)cc1"
test_readout = "IC50"
value = 0.0755

[[record]]
compound = "NS(=O)(=O)c1c(S(=O)(=O)N[C@@H]2CCNC2)ccc(-c2ccc3nonc3c2)c1-c1nnn[nH]1"
test_readout = "IC50"
value = 0.816

[[record]]
compound = "Nc1nc2c(-c3ccc(S(=O)(=O)N4CC[C@H](N)C4)c(S(N)(=O)=O)c3-c3nnn[nH]3)cccc2s1"
test_readout = "IC50"
value = 1.47

[[record]]
compound = "Nc1nc2c(-c3ccc(S(=O)(=O)N4CCC(CO)CC4)c(S(N)(=O)=O)c3-c3nnn[nH]3)cccc2s1"
test_readout = "IC50"
value = 2.24

[[record]]
compound = "Nc1ncccc1-c1ccc(S(=O)(=O)NC[C@@H](N)CO)c(S(N)(=O)=O)c1-c1nn[nH]n1"
test_readout = "IC50"
value = 8.49

[[record]]
compound = "C[C@@H](CCN)NS(=O)(=O)c1ccc(-c2ccc(N)nc2)c(-c2nn[nH]n2)c1S(N)(=O)=O"
test_readout = "IC50"
value = 1.02

